Target: Ubiquitin carboxyl-terminal hydrolase 28 (Homo sapiens) (UniProt Q96RU2)
Sequence (Q96RU2 whole entry, looked up): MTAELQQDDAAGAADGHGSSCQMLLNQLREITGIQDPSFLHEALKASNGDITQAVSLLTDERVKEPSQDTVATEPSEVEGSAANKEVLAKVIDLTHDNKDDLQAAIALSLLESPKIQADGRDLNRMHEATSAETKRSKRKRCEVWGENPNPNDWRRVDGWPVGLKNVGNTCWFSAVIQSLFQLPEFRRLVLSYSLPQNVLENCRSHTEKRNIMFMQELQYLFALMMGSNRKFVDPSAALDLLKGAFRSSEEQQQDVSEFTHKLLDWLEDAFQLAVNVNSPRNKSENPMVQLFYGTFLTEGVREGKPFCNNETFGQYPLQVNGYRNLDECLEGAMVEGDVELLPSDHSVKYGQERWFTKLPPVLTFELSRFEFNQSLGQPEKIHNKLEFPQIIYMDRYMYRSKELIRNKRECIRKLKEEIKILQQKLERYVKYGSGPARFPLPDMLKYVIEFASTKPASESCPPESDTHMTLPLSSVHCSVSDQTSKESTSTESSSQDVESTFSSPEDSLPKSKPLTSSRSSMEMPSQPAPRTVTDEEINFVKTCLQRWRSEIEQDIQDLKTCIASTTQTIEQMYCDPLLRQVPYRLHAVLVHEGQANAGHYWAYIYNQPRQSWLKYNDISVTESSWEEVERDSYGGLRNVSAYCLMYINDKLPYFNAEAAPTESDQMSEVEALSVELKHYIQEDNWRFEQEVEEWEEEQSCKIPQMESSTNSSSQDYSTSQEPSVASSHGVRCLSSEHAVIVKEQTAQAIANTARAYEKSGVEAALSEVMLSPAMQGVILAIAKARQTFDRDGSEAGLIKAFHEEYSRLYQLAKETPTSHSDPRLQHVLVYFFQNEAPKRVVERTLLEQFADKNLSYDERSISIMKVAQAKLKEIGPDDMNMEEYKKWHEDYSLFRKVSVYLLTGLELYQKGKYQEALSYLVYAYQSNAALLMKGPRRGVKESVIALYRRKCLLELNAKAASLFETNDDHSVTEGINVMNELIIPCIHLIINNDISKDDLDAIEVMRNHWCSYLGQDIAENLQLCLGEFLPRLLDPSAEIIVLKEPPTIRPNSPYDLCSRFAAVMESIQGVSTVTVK
Assay: Concentration-response biochemical assay confirming initial hits as inhibitors of ubiquitin-specific protease 28 (AID 1645866)
Details: purified USP28, ubiquitin-rhodamine fluorescence, 30 min
The source made the active and inactive calls.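 The calls were made as follows: active = in confirmatory dose-response testing, peak deubiquitinase inhibition of 30% or more; inactive = the rest.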
// one of active, inactive, no free text

Use the examples below as a reference point.
| compound | systemUnderTest | classLabel |
| --- | --- | --- |
| O=c1[nH]c2ccc(S(=O)(=O)Nc3ccc(O)c4ccccc34)cc2[nH]1 | Ubiquitin carboxyl-terminal hydrolase 28 (Homo sapiens) (UniProt Q96RU2) | active |
| CC(=O)C1=C(O)[C@]2(O)C(=O)c3c(c(C)c4ccc(C)c(O)c4c3O)C[C@H]2[C@@H](N)C1=O | Ubiquitin carboxyl-terminal hydrolase 28 (Homo sapiens) (UniProt Q96RU2) | active |
| CC(C)CC[C@H]1O[C@@H](CC(=O)O)Cc2cc3c(c(O)c21)C(=O)c1sc(=O)n(C)c1C3=O | Ubiquitin carboxyl-terminal hydrolase 28 (Homo sapiens) (UniProt Q96RU2) | active |
| O=C(Nc1ccc(-c2cn3ccccc3n2)cc1)C1C=C2C=C(Br)C=CC2OC1=O (stereo not drawn) | Ubiquitin carboxyl-terminal hydrolase 28 (Homo sapiens) (UniProt Q96RU2) | active |
| CCc1c(C)c(C#N)c2nc3ccccc3n2c1N1CCN(C2CCCC2)CC1 | Ubiquitin carboxyl-terminal hydrolase 28 (Homo sapiens) (UniProt Q96RU2) | active |

Query: Identify the outcome logged in this assay for the compound shown: CNC(=O)CC1NC(=O)c2csc(n2)-c2ccc(-c3nc(C4=NC(C(=O)N5CCCC5C(N)=O)CO4)cs3)nc2-c2csc(n2)-c2csc(n2)C(C(O)c2ccccc2)NC(=O)CNC(=O)c2nc(sc2COC)C(C(C)C)NC(=O)c2nc1sc2C (stereo not drawn)
Reply: active

Query: I would be grateful if you could indicate the recorded call for `CC(C)(C)c1ccc(Cn2nnc3c(=O)[nH]c(C4CCN(S(=O)(=O)c5ccc(S(=O)(=O)NC6CC6)cc5)CC4)nc32)cc1` .
Reply: active

Query: So what was the verdict on `COc1cc(NC(=O)Cc2ccccc2)ccc1NC(=O)c1cc2ccccc2o1` in this test?
Reply: active

Query: recorded result category for `O=C(Nc1cc(Cl)ccc1-n1cncn1)c1ccc(S(=O)(=O)N2CCCC2)cc1` in this test
Reply: inactive

Query: # lookup: test call for `NS(=O)(=O)c1ccc(NC(=O)Cn2cnc3cc([N+](=O)[O-])ccc3c2=O)cc1`
Reply: active

Query: Name the outcome recorded for `CCc1ccc(-n2c(=O)c3ccccc3n(CC(=O)NCCC3=CCCCC3)c2=O)cc1` in the assay.
Reply: active

Query: GET /call?item= COc1cccc(NC(=O)C2C3C=CC4(O3)C2C(=O)N(CCc2ccccc2Cl)C4C(=O)NC2CCCCC2)c1 (stereo not drawn) returns the recorded outcome of this test.
Reply: active

###

Would you kindly list IC50 for each of these molecules?
Target: Ubiquitin carboxyl-terminal hydrolase 28 (Homo sapiens) (UniProt Q96RU2)
Assay: Concentration-response biochemical assay confirming initial hits as inhibitors of ubiquitin-specific protease 28 (AID 1645866)
Details: purified USP28, ubiquitin-rhodamine fluorescence, 30 min
The source made the active and inactive calls.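 The calls were made as follows: active = in confirmatory dose-response testing, peak deubiquitinase inhibition of 30% or more; inactive = the rest.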

| molecule | IC50 |
| --- | --- |
| CN1CCN(C(=O)c2cc(-c3ccn(CC4CC4)n3)n3ccccc23)CC1 | > 50 µM (inactive) |

Below are some molecules; for each one, tell me its IC50.
1. CCn1cc(-c2nc(-c3ccccn3)no2)c(=O)c2cc(F)ccc21
2. COc1ccc(N2C(=O)[C@@H]3[C@H]4c5ccccc5C=CN4C(C(=O)Nc4ccc5c(c4)OCO5)[C@@H]3C2=O)cc1 (stereo not given in full)
3. COc1cc2c(cc1OC)-c1cc(NCc3cc(OC)c(OC)c(OC)c3)nc(=O)n1CC2

Reply:
1: 26.5 µM; 2: > 50 µM (inactive); 3: > 50 µM (inactive)

###

Target: Ubiquitin carboxyl-terminal hydrolase 28 (Homo sapiens)
Assay: Concentration-response biochemical assay confirming initial hits as inhibitors of ubiquitin-specific protease 28 (AID 1645866)
Settings: purified USP28, ubiquitin-rhodamine fluorescence, 30 min
Activity calls are given as the source filed them.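 Rule for the calls: active = in confirmatory dose-response testing, peak deubiquitinase inhibition of 30% or more; inactive = the rest.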
Outcomes you can answer with include only these: true (active), false (inactive)

| cpdSmiles | classLabel |
| --- | --- |
| Cc1nc(-c2ccc3c(c2)nnn3CCN2CCOCC2)no1 | false |
| CCOC(=O)c1c(C)oc2nc(CSc3ccccc3)[nH]c(=O)c12 | true |
| CC(C)C(=O)Nc1ccc(N2CCN(Cc3ccc(F)cc3)C2=O)nc1 | true |
| CC1CCN(C(=O)c2cn(-c3cc(N4CCC(C)CC4)ncn3)cn2)CC1 | true |

Next, consider the following molecule.
Query: For `Cc1ccccc1C(=O)Nc1ccc(Cc2ccc(NC(=O)c3ccccc3C)c(O)c2)cc1O` , what call appears in the results of this test?
Reply: true

###

Target: Ubiquitin carboxyl-terminal hydrolase 28 (Homo sapiens) (UniProt Q96RU2)
Assay: Concentration-response biochemical assay confirming initial hits as inhibitors of ubiquitin-specific protease 28 (AID 1645866)
Settings: purified USP28, ubiquitin-rhodamine fluorescence, 30 min
Active and inactive are the calls of the source.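 The calls were made as follows: active = in confirmatory dose-response testing, peak deubiquitinase inhibition of 30% or more; inactive = the rest.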
Give one outcome, nothing more. List: yes (1) = active, no (0) = inactive

Worked examples follow.
| compound | classLabel |
| --- | --- |
| O=C(Cn1c(=O)n(Cc2ccc3c(c2)OCO3)c(=O)c2ncccc21)c1ccc(Cl)cc1 | yes (1) |
| O=C1C=CC(O)C2C1CC13SSC4(CC5C(=O)C=CC(O)C5N4C1=O)C(=O)N23 (configuration not stated) | no (0) |
| O=C(Cn1c(=O)c2sccc2n(Cc2ccc([N+](=O)[O-])cc2)c1=O)NCCc1ccccc1 | yes (1) |

Query: Hi, sorry to bother you, what did the test record for `Cn1cc(CCNC(=O)c2cc3ccccc3[nH]2)c2cccnc21` ?
Reply: yes (1)

Query: Assay result, entry `COc1cc(OC)cc(-n2c(=O)c3sccc3n(CC(=O)Nc3ccc(C)cc3)c2=O)c1` — outcome?
Reply: yes (1)

Query: Per the assay record, what outcome was assigned to `CCCCc1nc2sc3c(SCC(=O)Nc4cccc(C)c4)ncnc3c2c2c1CCC2` ?
Reply: yes (1)

Query: Hi team, can someone confirm the assay call for CC(C)(C)C(=O)C1C2C(=O)N(Cc3ccccc3)C(=O)C2C2c3ccccc3C=CN12 (configuration not stated) ?
Reply: no (0)

###

Molecular target: Ubiquitin carboxyl-terminal hydrolase 28 (Homo sapiens)
readoutLabel: pIC50
One number for each entry, as −log10 of the molar value.

| compound | pIC50 |
| --- | --- |
| COc1cc(Cn2cnc3c([nH]c4ccc(Br)cc43)c2=O)cc(OC)c1 | 5.56 |
| COc1ccc(NC(=O)CN2CCN(c3ccc(C(C)=O)cc3)CC2)cc1S(=O)(=O)N1CCCCC1 | 4.39 |
| O=c1c2cnc(N3CCCCC3)nc2ccn1CCc1ccccc1 | 5.26 |
| COc1ccc(Cl)c(NC(=O)C2CC(=O)Nc3cc(-c4ccccc4)nn32)c1 (stereo not given) | 4.76 |

Entry COc1ccc(OCCn2c(C3CC(=O)N(c4cccc(C)c4)C3)nc3ccccc32)cc1 (stereo not given) , tested on Ubiquitin carboxyl-terminal hydrolase 28 (Homo sapiens), has a reported pIC50 of 5.80

###

Biological target: UniProt:Q96RU2
Experiment: Concentration-response biochemical assay confirming initial hits as inhibitors of ubiquitin-specific protease 28 (AID 1645866)
Conditions: purified USP28, ubiquitin-rhodamine fluorescence, 30 min
Calls of active or inactive are those of the source.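 The calls were made as follows: active = in confirmatory dose-response testing, peak deubiquitinase inhibition of 30% or more; inactive = the rest.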
Mark one answer only. Choices: active, inactive

Previously resolved entries follow.
| cpdSmiles | systemUnderTest | classLabel |
| --- | --- | --- |
| COc1ccccc1NC(=O)CNC(=O)c1nn(-c2ccc(OC)c(OC)c2)c(=O)c2ccccc12 | UniProt:Q96RU2 | active |
| CCn1cc(-c2cc(C(=O)Nc3cnn(Cc4cccc(F)c4)c3)c3ccccc3n2)cn1 | UniProt:Q96RU2 | active |
| CCN(Cc1ccccc1)S(=O)(=O)c1ccc(C(=O)Nc2ccc3c(c2)OCCO3)cc1 | UniProt:Q96RU2 | active |
| CCCC[C@@H](C)/C=C(C)/C=C(\C)C(=O)NC1=C[C@](O)(/C=C/C=C/C=C/C(=O)NC2=C(O)CCC2=O)[C@@H]2O[C@@H]2C1=O | UniProt:Q96RU2 | active |
| O=C(CSc1ncnc2c1sc1cccc(F)c12)N1CCCCCC1 | UniProt:Q96RU2 | inactive |

Consider the additional compound presented here.
Query: Hi, sorry to bother you, what did the test record for `CN[C@H]1CC2(CCN(C(=O)CCCn3cccn3)CC2)OC[C@]1(C)O` ?
Reply: inactive

###

Biological target: Ubiquitin carboxyl-terminal hydrolase 28 (Homo sapiens)
Assay: Concentration-response biochemical assay confirming initial hits as inhibitors of ubiquitin-specific protease 28 (AID 1645866)
Details: purified USP28, ubiquitin-rhodamine fluorescence, 30 min
Calls of active or inactive are those of the source.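 The calls were made as follows: active = in confirmatory dose-response testing, peak deubiquitinase inhibition of 30% or more; inactive = the rest.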
Form entry, call: pick from Y = active, N = inactive

Worked cases, answers included:
| compound | classLabel |
| --- | --- |
| CCC(C)NC(=O)Cn1c(=O)n(-c2ccccc2)c(=O)c2ccc(C(=O)NCc3ccco3)cc21 (stereo not given) | Y |
| CC1CCc2c(sc3ncnc(OCc4cccc([N+](=O)[O-])c4)c23)C1 (stereo not given) | Y |

Query: Dear all, I need the recorded test outcome for `O=C(Cn1cccc1-c1nc(-c2ccccc2)cs1)N1CCOCC1` , thank you.
Reply: Y

Query: I would be grateful if you could indicate the recorded call for `CCN1C[C@@H]2C[C@]2(c2ccccc2OC)C(=O)c2ncccc21` .
Reply: N
